Hello, the source for this data is paper PMC7287908, in case you need it.

Overview of recorded pIC50 for various molecules
# study target: AChE from electric eel (EeAChE) (Electrophorus electricus)
# Construct: Acetylcholinesterase used was obtained from electric eel (Electrophorus electricus L; EeAChE); purchased Sigma-Aldrich (Prague, Czech Republic); host or cells: electric eel (natural source)
# Sequence (O42275 24-633): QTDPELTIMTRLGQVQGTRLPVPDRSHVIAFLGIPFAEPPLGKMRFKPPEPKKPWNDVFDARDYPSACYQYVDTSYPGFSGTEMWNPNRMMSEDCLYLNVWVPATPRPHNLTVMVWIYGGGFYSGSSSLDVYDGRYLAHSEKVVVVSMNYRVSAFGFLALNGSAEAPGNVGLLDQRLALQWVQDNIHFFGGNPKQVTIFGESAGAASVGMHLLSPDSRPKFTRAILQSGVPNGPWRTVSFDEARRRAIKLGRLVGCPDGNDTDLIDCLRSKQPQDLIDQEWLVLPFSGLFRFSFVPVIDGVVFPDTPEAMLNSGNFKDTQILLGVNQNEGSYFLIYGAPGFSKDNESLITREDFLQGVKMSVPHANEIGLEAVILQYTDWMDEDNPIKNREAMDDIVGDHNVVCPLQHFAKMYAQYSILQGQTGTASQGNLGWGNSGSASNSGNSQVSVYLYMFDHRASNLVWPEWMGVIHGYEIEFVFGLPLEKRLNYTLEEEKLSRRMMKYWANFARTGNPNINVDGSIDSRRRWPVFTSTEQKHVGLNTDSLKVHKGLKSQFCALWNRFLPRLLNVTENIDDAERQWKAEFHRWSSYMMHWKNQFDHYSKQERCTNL
# test name: biochemical
# condition info: electric eel AChE; mean ± SD, n = three independent experiments; read-out: IC50 AChE
FYI, pIC50 means -log10 of a concentration in mol per litre.

>  <smiles text>
CCCCCCCCCCCCCCCCNC(=O)NNC(=O)c1ccc(C(F)(F)F)cc1

>  <pIC50>
4.16

$$$$
>  <smiles text>
CCCCCCCCCCCNC(=O)NNC(=O)c1ccc(C(F)(F)F)cc1

>  <pIC50>
4.39

$$$$
>  <smiles text>
CCCCCCNc1nnc(-c2ccc(C(F)(F)F)cc2)o1

>  <pIC50>
4.15

$$$$
>  <smiles text>
CCCCCCCCNC(=O)NNC(=O)c1ccc(C(F)(F)F)cc1

>  <pIC50>
4.11

$$$$
>  <smiles text>
CCCCCCCCCCCCCCNC(=O)NNC(=O)c1ccc(C(F)(F)F)cc1

>  <pIC50>
4.41

$$$$

Query :: Would you mind telling me what pIC50 value was observed for CCCCCCCCCNC(=O)NNC(=O)c1ccc(C(F)(F)F)cc1 ?
Result :: 3.97

Query :: Would you mind telling me what pIC50 value was observed for CCCCCCCCCCNC(=O)NNC(=O)c1ccc(C(F)(F)F)cc1 ?
Result :: 4.31
